# test: gradient 5% acetonitrile 3 min, to 50% in 2 min, to 85% in 15 min, held 3 min, 100 µL/min
# condition.context: column: Zorbax Extend-C18 2.1 x 50 mm; eluents: water / acetonitrile, 0.1% formic acid
Would you mind telling me the reported RP-LC retention time of each entry?
Just the number in s, nothing appended.

Exam item: Report RP-LC retention time for `CN(C)c1nc2ncn3c(=O)n(CC(=O)NCCc4ccc(Cl)cc4)nc3c2s1` please.
Marked response: 706

Exam item: Report RP-LC retention time for `CCc1nc(-c2cccc(-c3noc(CNC(=O)c4ccccc4)n3)c2)cs1` please.
Marked response: 1010

Exam item: Report RP-LC retention time for Cc1ccc(C(=O)NC2CCN(c3ccc(C)cc3)C2=O)cc1 (stereo not given) please.
Marked response: 825

Exam item: Report RP-LC retention time for `O=c1oc2c(O)c(O)ccc2c2c1CCCC2` please.
Marked response: 683

Exam item: Report RP-LC retention time for `COc1ccc2c(CCNC(=O)c3cccs3)c[nH]c2c1` please.
Marked response: 764

###

Would you mind telling me the reported RP-LC retention time of each entry?
# test: gradient 5% acetonitrile 3 min, to 50% in 2 min, to 85% in 15 min, held 3 min, 100 µL/min
# condition.context: column: Zorbax Extend-C18 2.1 x 50 mm; eluents: water / acetonitrile, 0.1% formic acid
Express the reported value numerically, then name its unit.

Exam item: Report RP-LC retention time for NC(=NC1C2CC3CC(C2)CC1C3)Nc1ccc(I)cc1 (stereo not given) please.
Marked response: 887 s

Exam item: Report RP-LC retention time for `CCCC(=O)NCc1nc(-c2ccccc2Cl)no1` please.
Marked response: 755 s

Exam item: Report RP-LC retention time for COc1ccc(CCC(=O)NC(CC(C)C)C(=O)Nc2nc3ccccc3[nH]2)cc1 (stereo not given) please.
Marked response: 745 s

Exam item: Report RP-LC retention time for `O=C(Nc1ccc2c(c1)CN(S(=O)(=O)c1ccc3c(c1)CCC3)CCO2)C1CC1` please.
Marked response: 932 s

Exam item: Report RP-LC retention time for `CNC(=O)[C@@H]1C[C@H](Oc2ccccc2)CN1C(=O)c1ccco1` please.
Marked response: 670 s

###

# test: gradient 5% acetonitrile 3 min, to 50% in 2 min, to 85% in 15 min, held 3 min, 100 µL/min
# condition.context: column: Zorbax Extend-C18 2.1 x 50 mm; eluents: water / acetonitrile, 0.1% formic acid
Each entry gets NO if its RP-LC retention time stays under 800 s, and YES if its RP-LC retention time is 800 s or above.

Exam item: Does the reported RP-LC retention time for Cc1ccc(CNC(=O)C2(C)CCCN(S(=O)(=O)c3ccccc3)C2)cc1 (stereo not given) fall at or above the 800 s mark?
Marked response: YES

Exam item: Does the reported RP-LC retention time for CCc1onc(C)c1C1CCCN1C(=O)c1ccc(F)cc1 (stereo not given) fall at or above the 800 s mark?
Marked response: NO

Exam item: Does the reported RP-LC retention time for `O=C(Cc1cccs1)NCc1cc(-c2ccc(Cl)cc2)on1` fall at or above the 800 s mark?
Marked response: YES

Exam item: Does the reported RP-LC retention time for `Cc1cccc(CN2N=C(C(=O)N3CCCC3)S(=O)(=O)c3ccccc32)c1` fall at or above the 800 s mark?
Marked response: YES

Exam item: Does the reported RP-LC retention time for `CCc1cccc(NC(=O)N2CCc3c(c(-c4nc(C5CC5)no4)nn3C)C2)c1` fall at or above the 800 s mark?
Marked response: YES

Exam item: Does the reported RP-LC retention time for O=C(NCCc1cccs1)c1cccc(N2CCNC(c3ccccc3)C2)n1 (stereo not given) fall at or above the 800 s mark?
Marked response: NO

Exam item: Does the reported RP-LC retention time for O=C(CC1=C2CCCCC2NC1=O)Nc1ccccc1F (stereo not given) fall at or above the 800 s mark?
Marked response: NO

Exam item: Does the reported RP-LC retention time for CC1CCCCN1CCNC(=O)CCCn1c(=O)c2cccn2c2ccc(Br)cc21 (stereo not given) fall at or above the 800 s mark?
Marked response: NO

Exam item: Does the reported RP-LC retention time for O=C1OC(C(=O)Nc2ccc(F)cc2)Cc2ccc(Cl)cc21 (stereo not given) fall at or above the 800 s mark?
Marked response: YES

Exam item: Does the reported RP-LC retention time for `Cc1ccccc1CNC(=O)c1c(C)sc2ccn(CC(C)C)c(=O)c12` fall at or above the 800 s mark?
Marked response: YES

Exam item: Does the reported RP-LC retention time for CN1C(=O)C(C)(C(=O)Nc2ccc(F)cc2)Oc2cccnc21 (stereo not given) fall at or above the 800 s mark?
Marked response: YES

Exam item: Does the reported RP-LC retention time for `COc1cccc(CNC(=O)C2(c3ccc(NS(C)(=O)=O)cc3)CCCCC2)c1` fall at or above the 800 s mark?
Marked response: YES

Exam item: Does the reported RP-LC retention time for CSc1ccc(CCNC(=O)c2ccc(CN3CC(=O)N4CCCCC4C3=O)cc2)cc1 (stereo not given) fall at or above the 800 s mark?
Marked response: NO

Exam item: Does the reported RP-LC retention time for `Cc1cnc(-c2ccccc2)n1C1CN(S(=O)(=O)c2cccc(F)c2)C1` fall at or above the 800 s mark?
Marked response: NO

Exam item: Does the reported RP-LC retention time for `Cc1cccc(-c2noc(Cn3c(=O)n(-c4ccccc4)c(=O)c4sccc43)n2)c1` fall at or above the 800 s mark?
Marked response: YES

Exam item: Does the reported RP-LC retention time for `O=C(NCCSc1ncc(-c2ccc(F)cc2)[nH]1)c1ccc(Br)o1` fall at or above the 800 s mark?
Marked response: NO
